Biological target: human HDAC4 (Homo sapiens, UniProt P56524)
Construct: made in house; host or cells: 293T cells (transient transfection, anti-FLAG immunoprecipitation, FLAG peptide elution)
Sequence (P56524 whole entry): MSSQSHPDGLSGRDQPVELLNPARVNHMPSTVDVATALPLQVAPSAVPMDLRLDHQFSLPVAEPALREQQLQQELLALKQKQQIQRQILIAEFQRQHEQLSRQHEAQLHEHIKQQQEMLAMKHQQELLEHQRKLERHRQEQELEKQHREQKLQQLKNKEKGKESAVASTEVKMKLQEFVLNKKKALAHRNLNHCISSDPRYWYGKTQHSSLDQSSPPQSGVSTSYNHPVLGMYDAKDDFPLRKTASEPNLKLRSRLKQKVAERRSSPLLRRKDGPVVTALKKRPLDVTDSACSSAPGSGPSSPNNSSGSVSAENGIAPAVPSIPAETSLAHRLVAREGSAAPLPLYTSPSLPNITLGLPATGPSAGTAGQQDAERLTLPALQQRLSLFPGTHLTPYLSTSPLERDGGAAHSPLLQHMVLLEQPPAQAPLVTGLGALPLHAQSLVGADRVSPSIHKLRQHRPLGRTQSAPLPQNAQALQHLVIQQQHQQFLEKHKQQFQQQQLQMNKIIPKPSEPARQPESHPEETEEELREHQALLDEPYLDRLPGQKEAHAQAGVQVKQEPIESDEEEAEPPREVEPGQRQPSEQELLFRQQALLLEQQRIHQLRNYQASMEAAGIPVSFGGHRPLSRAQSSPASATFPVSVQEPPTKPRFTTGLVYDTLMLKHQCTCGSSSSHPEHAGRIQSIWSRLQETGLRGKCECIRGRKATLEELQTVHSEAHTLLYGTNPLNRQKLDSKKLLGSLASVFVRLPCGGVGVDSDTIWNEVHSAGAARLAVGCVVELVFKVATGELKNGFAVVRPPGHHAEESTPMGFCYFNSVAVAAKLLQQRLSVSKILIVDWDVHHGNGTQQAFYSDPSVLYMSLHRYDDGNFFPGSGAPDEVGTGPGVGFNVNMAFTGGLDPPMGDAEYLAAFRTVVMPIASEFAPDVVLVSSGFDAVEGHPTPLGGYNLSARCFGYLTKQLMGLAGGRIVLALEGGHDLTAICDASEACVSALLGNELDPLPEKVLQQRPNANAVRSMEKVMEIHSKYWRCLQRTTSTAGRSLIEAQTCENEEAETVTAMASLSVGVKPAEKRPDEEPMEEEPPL
Sequence (O15379 whole entry, further chain): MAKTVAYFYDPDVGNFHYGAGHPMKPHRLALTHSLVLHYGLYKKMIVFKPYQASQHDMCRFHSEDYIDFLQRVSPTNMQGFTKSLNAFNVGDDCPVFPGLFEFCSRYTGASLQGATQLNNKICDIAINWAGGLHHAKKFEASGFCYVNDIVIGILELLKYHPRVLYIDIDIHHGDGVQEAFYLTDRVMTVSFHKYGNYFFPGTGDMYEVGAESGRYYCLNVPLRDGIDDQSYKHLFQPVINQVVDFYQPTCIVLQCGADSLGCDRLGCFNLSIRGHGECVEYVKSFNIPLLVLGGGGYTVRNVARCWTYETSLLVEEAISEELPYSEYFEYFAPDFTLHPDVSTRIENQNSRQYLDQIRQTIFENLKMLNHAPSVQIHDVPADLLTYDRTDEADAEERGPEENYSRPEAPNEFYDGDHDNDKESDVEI
Experiment: HDAC-inhibiting activity, coumarin-labeled acetylated histone peptide assay
Type: biochemical
Details: human HDAC4 from transfected 293T cells; 37° C., 30 minutes; read-out: HDAC-inhibiting activity IC50 HDAC4
pIC50: −log10 of the molar value.
readout.kind: pIC50

Some entries whose results are on file:
| molecule | measurement.target | pIC50 |
| --- | --- | --- |
| CC(=O)COCCCCC[C@@H]1NC(=O)[C@H]2CCCN2C(=O)[C@H](Cc2ccccc2)NC(=O)C(C)(C)NC1=O [Ky-74, cyclo(-L-Ah7(acetonyl)-Aib-L-Phe-D-Pro-)] | human HDAC4 (Homo sapiens, UniProt P56524) | < 4.00 |
| CC1(C)NC(=O)[C@H](CCCSCC(=O)C(F)(F)F)NC(=O)[C@H]2CCCN2C(=O)[C@H](Cc2ccccc2)NC1=O [Ky-27] | human HDAC4 (Homo sapiens, UniProt P56524) | < 4.00 |

Kindly review the next molecule as well.
Form field: reported pIC50 of CSCCCCC[C@@H]1NC(=O)[C@H]2CCCN2C(=O)[C@H](Cc2ccccc2)NC(=O)C(C)(C)NC1=O [Ky-15, cyclo(-L-Am7(methyl)-Aib-L-Phe-D-Pro-)]
< 4.00
